Attribution: the supplement of paper PMC10567573

Measured protein stability index accompanies every entry in the list below.
B1: FBXO3 (parent)
chain: GGFPIIRDQIFRYVHDPECVATTG

- Variants of: B1
- test.description: protein stability index of a GFP-peptide fusion (GPS, HEK-293T) (PSI 1-6); higher = more stable;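 further: lentivirally expressed fusions sorted by FACS into six bins by GFP to DsRed ratio, PSI derived from sequencing read proportions per bin multiplied by bin number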
- run.conditions: c terminus: a fixed tail appended
No unit in the answer, only the number.

Known results for variants:
sequence.change	protein stability index
A21Q	2.05
A21G	2
I6C	1.96
V20Q	2.04
H15Q	2.02

QUERY: Given G1S , state its recorded protein stability index.
RESULT: 2.01

QUERY: What about E18H ?
RESULT: 1.99
